Biological target: UniProt Q92793
Sequence (Q92793 whole entry): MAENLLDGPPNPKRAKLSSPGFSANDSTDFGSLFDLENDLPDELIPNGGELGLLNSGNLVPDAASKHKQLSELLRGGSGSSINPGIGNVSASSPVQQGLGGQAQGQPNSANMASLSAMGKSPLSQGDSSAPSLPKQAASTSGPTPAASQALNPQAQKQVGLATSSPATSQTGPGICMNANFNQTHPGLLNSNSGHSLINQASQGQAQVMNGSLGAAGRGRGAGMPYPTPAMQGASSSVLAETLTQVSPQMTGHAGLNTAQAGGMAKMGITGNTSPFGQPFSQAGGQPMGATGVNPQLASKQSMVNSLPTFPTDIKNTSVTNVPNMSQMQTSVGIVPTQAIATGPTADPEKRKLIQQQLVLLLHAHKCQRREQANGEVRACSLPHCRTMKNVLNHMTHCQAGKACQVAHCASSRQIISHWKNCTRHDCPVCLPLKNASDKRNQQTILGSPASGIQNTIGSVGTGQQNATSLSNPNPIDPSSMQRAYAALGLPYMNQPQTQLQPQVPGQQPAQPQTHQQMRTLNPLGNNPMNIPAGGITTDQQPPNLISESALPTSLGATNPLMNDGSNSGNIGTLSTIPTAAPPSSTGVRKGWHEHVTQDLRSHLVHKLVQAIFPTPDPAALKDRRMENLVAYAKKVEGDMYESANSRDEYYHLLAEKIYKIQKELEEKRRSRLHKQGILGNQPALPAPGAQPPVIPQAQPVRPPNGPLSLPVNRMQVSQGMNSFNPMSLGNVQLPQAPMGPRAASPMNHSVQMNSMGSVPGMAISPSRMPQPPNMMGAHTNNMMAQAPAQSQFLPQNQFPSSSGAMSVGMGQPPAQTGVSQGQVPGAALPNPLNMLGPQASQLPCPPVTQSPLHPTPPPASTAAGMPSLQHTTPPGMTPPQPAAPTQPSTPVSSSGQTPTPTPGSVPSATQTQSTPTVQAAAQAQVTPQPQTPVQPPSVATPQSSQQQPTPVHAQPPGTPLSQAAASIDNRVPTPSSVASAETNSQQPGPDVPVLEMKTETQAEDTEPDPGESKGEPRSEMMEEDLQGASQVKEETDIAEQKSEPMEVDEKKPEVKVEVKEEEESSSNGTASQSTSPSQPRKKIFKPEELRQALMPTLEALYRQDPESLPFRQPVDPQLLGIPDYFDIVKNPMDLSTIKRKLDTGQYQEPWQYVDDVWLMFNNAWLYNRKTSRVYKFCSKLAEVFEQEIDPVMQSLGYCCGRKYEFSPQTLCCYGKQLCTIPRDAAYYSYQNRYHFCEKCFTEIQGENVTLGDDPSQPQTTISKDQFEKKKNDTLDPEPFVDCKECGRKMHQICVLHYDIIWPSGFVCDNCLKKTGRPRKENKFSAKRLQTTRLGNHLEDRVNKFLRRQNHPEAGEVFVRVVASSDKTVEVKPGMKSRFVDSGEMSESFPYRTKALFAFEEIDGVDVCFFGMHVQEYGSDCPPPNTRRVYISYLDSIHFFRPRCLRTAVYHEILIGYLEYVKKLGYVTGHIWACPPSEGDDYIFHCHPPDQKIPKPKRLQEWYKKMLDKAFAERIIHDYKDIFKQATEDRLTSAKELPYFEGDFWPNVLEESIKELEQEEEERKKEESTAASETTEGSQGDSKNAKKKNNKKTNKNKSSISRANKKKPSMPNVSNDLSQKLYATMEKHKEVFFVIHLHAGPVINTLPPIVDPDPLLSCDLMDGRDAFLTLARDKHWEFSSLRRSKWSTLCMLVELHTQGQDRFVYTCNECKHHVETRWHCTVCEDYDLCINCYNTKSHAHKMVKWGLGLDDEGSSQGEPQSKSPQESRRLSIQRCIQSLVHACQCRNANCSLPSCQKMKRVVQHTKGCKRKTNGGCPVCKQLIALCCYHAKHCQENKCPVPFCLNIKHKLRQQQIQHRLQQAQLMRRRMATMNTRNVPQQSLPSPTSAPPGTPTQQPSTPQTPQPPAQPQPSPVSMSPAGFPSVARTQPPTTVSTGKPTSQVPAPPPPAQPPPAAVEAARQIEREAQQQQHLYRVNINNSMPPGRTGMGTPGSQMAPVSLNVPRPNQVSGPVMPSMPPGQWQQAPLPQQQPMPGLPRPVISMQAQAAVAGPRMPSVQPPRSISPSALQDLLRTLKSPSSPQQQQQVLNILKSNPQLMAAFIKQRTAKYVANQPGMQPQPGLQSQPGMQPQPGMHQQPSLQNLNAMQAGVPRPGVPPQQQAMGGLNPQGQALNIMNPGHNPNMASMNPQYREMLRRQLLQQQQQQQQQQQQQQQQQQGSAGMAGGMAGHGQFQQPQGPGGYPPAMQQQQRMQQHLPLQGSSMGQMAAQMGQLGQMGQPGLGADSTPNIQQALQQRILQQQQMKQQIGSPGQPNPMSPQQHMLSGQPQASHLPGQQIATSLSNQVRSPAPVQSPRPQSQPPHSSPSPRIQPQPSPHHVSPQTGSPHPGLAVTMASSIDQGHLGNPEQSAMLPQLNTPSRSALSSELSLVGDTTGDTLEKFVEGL
Parameter: IC50 (nM)

Take a look at these entries with their results.
Cc1noc(C)c1-c1ccc2c(c1)nc(COc1ccccc1)n2CCN1CCOCC1 : 400
CC(=O)Nc1ccc(CCc2nc3cc(-c4c(C)noc4C)ccc3n2CCN2CCOCC2)cc1 : 200
CCCCOc1ccc(CCc2nc3cc(-c4c(C)noc4C)ccc3n2CCN2CCOCC2)cc1 : 260
COc1cc(-c2ccc3c(c2)nc(CCc2ccccc2)n3CCN2CCOCC2)cccc1=O : 210
CCOc1ccc(CCc2nc3cc(-c4c(C)noc4C)ccc3n2CCN2CCOCC2)cc1 : 130
COc1ccc(CCc2nc3cc(-c4c(C)noc4C)ccc3n2CCN2CCOCC2)c(OC)c1 : 240

I. Cc1noc(C)c1-c1ccc2c(c1)nc(CCc1cncc3ccccc13)n2CCN1CCOCC1
II. Cc1noc(C)c1-c1ccc2c(c1)nc(CCc1c[nH]c3ccccc13)n2CCN1CCOCC1
Problem: Please compare: I and II . Report which one has the smaller IC50 value. Use the label to indicate which entry you chose.
Solution: II

---

Species: Homo sapiens
Experiment: Selectivity ratio of IC50 for BRD4 (unknown origin) to IC50 for CREBBP (unknown origin)
Parameter: Ratio IC50

COc1ccccc1CCc1nc2cc(-c3c(C)noc3C)ccc2n1CCN1CCOCC1 : 14
COc1ccc(CCc2nc3cc(-c4c(C)noc4C)ccc3n2CCN2CCOCC2)cc1OC : 20
Cc1noc(C)c1-c1ccc2c(c1)nc(CCc1ccccc1)n2CC(=O)N1CCOCC1 : 37
Cc1noc(C)c1-c1ccc2c(c1)nc([C@@H]1CCO[C@H]1c1ccccc1)n2CCN1CCOCC1 : 6

A. COc1ccc([C@H]2OCC[C@@H]2c2nc3cc(-c4c(C)noc4C)ccc3n2CCN2CCOCC2)cc1
B. Cc1noc(C)c1-c1ccc2c(c1)nc(CCc1ccc(N(C)C)cc1)n2CCN1CCOCC1
Problem: Given A and B , report the one with the higher recorded Ratio IC50. Use the label to indicate which entry you chose.
Solution: A
(A: 67, B: 20)

P. Cc1noc(C)c1-c1ccc2c(c1)nc(CCc1ccccn1)n2CCN1CCOCC1
Q. Cc1noc(C)c1-c1ccc2c(c1)nc(CCc1ccc(C#N)cc1)n2CCN1CCOCC1
Problem: Please compare: P and Q . Report which one has the smaller Ratio IC50 value. Use the label to indicate which entry you chose.
Solution: P
(P: 10, Q: 16)

---

Species on record: Homo sapiens
Experiment: Selectivity ratio of IC50 for BRD4 (unknown origin) to IC50 for CREBBP (unknown origin)
Parameter: Ratio IC50

Cc1noc(C)c1-c1ccc2c(c1)nc(CCc1ccc3ccccc3n1)n2CCN1CCOCC1 : 31
Cc1noc(C)c1-c1ccc2c(c1)nc(CCc1ccc(N)cc1)n2CCN1CCOCC1 : 38
Cc1noc(C)c1-c1ccc2c(c1)nc(COc1ccccc1)n2CCN1CCOCC1 : 36
CCOc1ccc(CCc2nc3cc(-c4c(C)noc4C)ccc3n2CCN2CCOCC2)cc1 : 51
CCCCOc1ccc(CCc2nc3cc(-c4c(C)noc4C)ccc3n2CCN2CCOCC2)cc1 : 43

---

Species on record: Homo sapiens
Assay: Selectivity ratio of IC50 for BRD4 (unknown origin) to IC50 for CREBBP (unknown origin)
Item-by-item account of Ratio IC50

COc1ccc(CCc2cc3nc(-c4c(C)noc4C)ccc3n2CCN2CCOCC2)cc1 : > 100

Problem: Please report the measured Ratio IC50 for Cc1noc(C)c1-c1ccc2c(c1)nc1n2[C@H](CN2CCOCC2)CC1Cc1ccccc1 (single isomer, unassigned; 32)
Solution: > 62

Problem: Please report the measured Ratio IC50 for COc1ccc(CCc2c(C#N)c3cc(-c4c(C)noc4C)ccc3n2CCN2CCOCC2)cc1
Solution: > 240
